In this section, each of the compounds is paired with its reported IC50.
biological target: KRas^G12R (Homo sapiens, UniProt P01116, G12R); construct: Biotinylated KRas (corresponding to amino acids 1-169, produced at Accelegan Inc.); biotin (biotinylated); purchased Accelegan Inc; experiment: KRas binding assay (TR-FRET tracer displacement), KRas G12R
Sequence (P01116 1-169 isoform P01116-2 G12R): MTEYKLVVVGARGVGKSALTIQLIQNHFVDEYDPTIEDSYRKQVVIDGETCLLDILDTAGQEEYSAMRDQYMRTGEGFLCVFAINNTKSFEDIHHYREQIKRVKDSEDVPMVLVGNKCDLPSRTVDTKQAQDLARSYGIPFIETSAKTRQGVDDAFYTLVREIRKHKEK
assay.metric: IC50

1. Cc1cccc2c(-c3ncc4c(N5C[C@@H]6C[C@H](C5)[C@H](O)C6)nc(OC[C@@]56CCCN5C[C@H](F)C6)nc4c3F)cc(O)cc12 = 76 nM
2. CCc1c(F)ccc2cc(O)cc(-c3ncc4c(N5CCCn6cnnc6C5)nc(OC[C@@]56CCCN5C[C@H](F)C6)nc4c3F)c12 = 238 nM
3. CCc1c(F)ccc2cc(O)cc(-c3ncc4c(N5CC6CCC(COCCO)(C6)C5)nc(OC[C@@]56CCCN5C[C@H](F)C6)nc4c3F)c12 (stereo partly drawn) = 7 nM

###

tested on: KRas-mediated phosphorylation of ERK in MKN1 cells; experiment: Inhibition of KRas-mediated phosphorylation of ERK (Cisbio HTRF pERK), MKN1 cells; format: cell-based; conditions: Homo sapiens, MKN-1
assay.metric: IC50 (nM)

1. CCc1c(F)ccc2cc(O)cc(-c3ncc4c(N5CCC[C@]6(C5)C[C@@H](O)C6)nc(OC[C@@]56CCCN5[C@H](COC(=O)N(C)C)CC6)nc4c3F)c12 = 22
2. CCc1c(F)ccc2cc(O)cc(-c3ncc4c(N5CCCn6nc(C(=O)N(C)C)c(C)c6C5)nc(OC[C@@]56CCCN5C[C@H](F)C6)nc4c3F)c12 = 2
3. CCc1c(F)ccc2cc(O)cc(-c3ncc4c(N5CCCCn6nc(C(=O)N7CCOCC7)cc6C5)nc(OC[C@@]56CCCN5C[C@H](F)C6)nc4c3F)c12 = 16

###

In this section, each of the molecules is paired with its reported IC50.
molecular target: KRas^G12S (Homo sapiens, UniProt P01116, G12S); construct: Biotinylated KRas (corresponding to amino acids 1-169, produced at Accelegan Inc.); biotin (biotinylated); purchased Accelegan Inc; experiment: KRas binding assay (TR-FRET tracer displacement), KRas G12S; conditions: TR-FRET tracer displacement, KRas G12S
Sequence (P01116 1-169 isoform P01116-2 G12S): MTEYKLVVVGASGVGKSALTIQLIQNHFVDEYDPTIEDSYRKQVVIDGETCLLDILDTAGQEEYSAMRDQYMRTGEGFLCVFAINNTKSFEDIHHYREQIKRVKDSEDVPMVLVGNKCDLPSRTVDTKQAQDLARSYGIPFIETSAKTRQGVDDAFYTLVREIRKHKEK
assay.metric: IC50

1) CCc1c(F)ccc2cc(O)cc(-c3ncc4c(N5C[C@@H]6C[C@H](C5)[C@H](O)C6)nc(OCC56CCCN5CC(F)(F)C6)nc4c3F)c12 (stereo partly drawn) = 5 nM
2) C=C1CN2CCCC2(COc2nc(N3CCCC4(CC(O)C4)C3)c3cnc(-c4cc(O)cc5ccc(F)c(CC)c45)c(F)c3n2)C1 (stereo not drawn) = < 2 nM
3) Cc1cc2[nH]ncc2c(-c2ncc3c(N4CCCn5nc(C(=O)N(C)C)cc5C4)nc(OCC45CCCN4CCC5)nc3c2F)c1C = 113 nM
4) O=C1NC(=O)[C@]2(CCCN(c3nc(OCC45CCCN4CCC5)nc4c(F)c(-c5c(C6CC6)c(Cl)cc6[nH]ncc56)ncc34)C2)N1 = < 2 nM
5) Oc1cc2ccccc2c(-c2ncc3c(N4C[C@@H]5C[C@H](C4)[C@H](O)C5)nc(OC[C@@]45CCCN4C[C@H](F)C5)nc3c2F)c1F = 91 nM
6) CC1(O)COCCN(c2nc(OCC34CCCN3CCC4)nc3c(F)c(-c4cc(O)cc(Cl)c4C4CC4)ncc23)C1 (racemic) = 9 nM
